Recorded EC50 group, cGMP in GTM-3 cells by entry
Biological target: T1, natriuretic peptide receptor-B (human)
T1 chain: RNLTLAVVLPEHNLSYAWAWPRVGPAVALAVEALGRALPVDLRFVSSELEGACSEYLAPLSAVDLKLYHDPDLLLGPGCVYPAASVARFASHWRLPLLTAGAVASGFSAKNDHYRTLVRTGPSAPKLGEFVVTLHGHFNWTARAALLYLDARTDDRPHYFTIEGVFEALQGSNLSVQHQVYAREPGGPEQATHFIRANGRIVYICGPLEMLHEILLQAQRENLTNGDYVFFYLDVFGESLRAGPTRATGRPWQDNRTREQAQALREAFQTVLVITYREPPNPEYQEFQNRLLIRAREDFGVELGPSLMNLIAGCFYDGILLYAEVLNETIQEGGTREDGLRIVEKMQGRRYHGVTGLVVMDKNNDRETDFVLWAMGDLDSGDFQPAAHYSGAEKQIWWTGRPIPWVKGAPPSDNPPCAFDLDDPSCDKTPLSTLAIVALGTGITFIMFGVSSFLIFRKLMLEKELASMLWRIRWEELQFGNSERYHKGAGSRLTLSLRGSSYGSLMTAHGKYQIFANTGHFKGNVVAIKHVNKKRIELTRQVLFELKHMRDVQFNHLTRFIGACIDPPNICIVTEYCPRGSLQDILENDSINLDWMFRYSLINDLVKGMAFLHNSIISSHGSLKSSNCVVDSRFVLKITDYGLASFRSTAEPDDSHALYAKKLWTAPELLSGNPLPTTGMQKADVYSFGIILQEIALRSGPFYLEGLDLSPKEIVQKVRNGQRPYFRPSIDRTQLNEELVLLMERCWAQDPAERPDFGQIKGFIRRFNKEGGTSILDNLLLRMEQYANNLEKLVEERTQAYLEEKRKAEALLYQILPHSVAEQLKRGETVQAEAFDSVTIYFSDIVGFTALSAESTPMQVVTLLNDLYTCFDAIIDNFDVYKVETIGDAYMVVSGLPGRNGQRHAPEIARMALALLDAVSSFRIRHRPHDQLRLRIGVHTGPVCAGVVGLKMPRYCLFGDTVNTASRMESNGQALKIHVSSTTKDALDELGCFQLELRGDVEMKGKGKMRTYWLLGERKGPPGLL
Experiment: cell-based or functional assay
Numbered stars: 1 amine (or outer) side, 2 acyl side, 3 side chain; on linkers, the order of the positions; unused ones are H or OH. Square brackets hold non-standard residues; d marks the D form. Primed or numbered codes have the meaning given here. Ends that are not written are not given here. * marks the point of attachment. 6988 = 2-pentyl-benzooxazole-5-carboxylic acid, CCCCCc1nc2cc(C(=O)*)ccc2o1; 6058 = 7-Butylsulfanyl-heptanoic acid, CCCCSCCCCCCC(=O)*; Sni = (S)-nipecotic acid, O=C([C@H]1CCCN([*:1])C1)[*:2]; 6013 = (2-butoxy-ethoxy)-acetic acid, CCCCOCCOCC(=O)*; Hyp = O=C(O)[C@@H]1C[C@@H](O)CN1; NMeL = CN[C@@H](CC(C)C)C(=O)O; Hyp(2581) = not defined here; dNle = CCCC[C@@H](N)C(=O)O; Pip = O=C(O)[C@@H]1CCCCN1; Octanoyl = CCCCCCCC(=O)*; leu = not defined here; Occ = octanoic acid

Some solved entries appear below for comparison.
# Binder, EC50 group, cGMP in GTM-3 cells
records = [
    ("6058-FRL[Hyp][NMeL]DRI-NH2 (not fully specified (some residues); printed as 6058-Phe-arg-Leu-Hyp-Nml-Asp-Arg-Ile-NH2) [JAL-1242]", "≤ 5 µM"),
    ("Octanoyl-[dA]F[dNle]L[Hyp]LDRI-NH2 [JAL-1025]", "≤ 5 µM"),
    ("Octanoyl-[dA]F[dL]L[Hyp][Pip]DRI-NH2 [JAL-1366]", "≤ 5 µM"),
    ("[Occ][Sni]F[leu]L[Hyp(2581)][NMeL]DRI-NH2 (reading uncertain; also: printed as Occ-Sni-Phe-leu-Leu-Hyp(2581)-Nml-Asp-Arg-Ile-NH2) [JAL-1929]", "≤ 5 µM"),
    ("XXFGLKLDRI (HELM PEPTIDE1{[CCCCCC(=O)[*:2]].[O=C([C@H]1CCC[C@@H](N[*:1])C1)[*:2]].F.G.L.K.L.D.R.I.[am]}$$$$V2.0; SMILES CCCCCC(=O)N[C@@H]1CCC[C@H](C(=O)N[C@@H](Cc2ccccc2)C(=O)NCC(=O)N[C@@H](CC(C)C)C(=O)N[C@@H](CCCCN)C(=O)N[C@@H](CC(C)C)C(=O)N[C@@H](CC(=O)O)C(=O)N[C@@H](CCCNC(=N)N)C(=O)N[C@H](C(N)=O)[C@@H](C)CC)C1) [JAL-0657]", "≤ 15 µM"),
    ("6988-[Sni]F[dL]L[Hyp][NMeL]DRI-NH2 [JAL-1615]", "≤ 15 µM"),
]

Request: Tell us which EC50 group, cGMP in GTM-3 cells value is on record for [6013][Sni]F[leu]L[Hyp][NMeL]DRI-NH2 (reading uncertain; also: printed as 6013-Sni-Phe-leu-Leu-Hyp-Nml-Asp-Arg-Ile-NH2) [JAL-1665]
Response: ≤ 5 µM

Request: For the binder Octanoyl-AFGL[Hyp]LDRI-NH2 (not fully specified (some residues); printed as Occ-ala-Phe-Gly-Leu-Hyp-Leu-Asp-Arg-Ile-NH2) [JAL-0898] , give its measured EC50 group, cGMP in GTM-3 cells value.
Response: ≤ 5 µM
